All figures here come from patent US20180085455A1.

Measured koff accompanies every entry in the list below.
- studySystem: T1, recombinant human ErbB3 protein (R&D systems) (human, UniProt P21860 20-643)
- T1 construct: Bought recombinant protein; also called HER3
- measurementProtocol: BLI (Octet QK384), human ErbB3 immobilized on AR2G sensor, IgG at 12.5-50 nM
Output spec: scalar in s⁻¹, unitless text.

| binder | observable | unitAbbrev | value |
| --- | --- | --- | --- |
| 442S9 (antibody, V domains shown, IgG1 (Selexis 085 vector, CHO)) VH: EVQLLESGGGLVQPGGSLRLSCAASGFTFSDYDMSWVRQAPGKGLEWVSSIYPDSGSTYYADSVQGRFTISRDNSKNTLYLQMNSLRAEDTAVYYCAKDRHMWPEGPFDYWGQGTLVTVSS VL: QSVLTQPPSASGTPGQRVTISCSGSSSNIGSNSGSWYQQLPGTAPKLLIYADNHRPSGVPDRFSGSKSGTSASLAISGLRSEDEADYYCAAWDSSLSGYVFGGGTKLTVLG | koff | s⁻¹ | 5.87e-05 |
| 451M6 (antibody, V domains shown, IgG1 (Selexis 085 vector, CHO)) VH: EVQLLESGGGLVQPGGSLRLSCAASGFTFSHYDMSWVRQAPGKGLEWVSAIYYDSGSIYYADSAKGRFTISRDNSKNTLYLQMNSLRAEDTAVYYCAKDRLFESDSTFDYWGQGTLVTVSS VL: QSVLTQPPSASGTPGQRVTISCSGSPSNIGNNSVTWYQQLPGTAPKLLIYYDSHRPSGVPDRFSGSKSGTSASLAISGLRSEDEADYYCGSWDASLNGYVFGGGTKLTVLG | koff | s⁻¹ | 4.17e-06 |
| 442M8 (antibody, V domains shown, IgG1 (Selexis 085 vector, CHO)) VH: EVQLLESGGGLVQPGGSLRLSCAASGFTFSDYDMSWVRQAPGKGLEWVSSIYPDSGSTYYADSVQGRFTISRDNSKNTLYLQMNSLRAEDTAVYYCAKDLHMGPEGPFDYWGQGTLVTVSS VL: QSVLTQPPSASGTPGQRVTISCSGSSSNIGSNSVSWYQQLPGTAPKLLIYSDNHRPSGVPDRFSGSKSGTSASLAISGLRSEDEADYYCHAWDSSLYVDVFGGGTKLTVLG | koff | s⁻¹ | 2.23e-06 |
| 472S1 (antibody, V domains shown, IgG1 (Selexis 085 vector, CHO)) VH: EVQLLESGGGLVQPGGSLRLSCAASGFTFSWYDMTWVRQAPGKGLEWVSGISYDGGNTYYADSVKGRFTISRDNSKNTLYLQMNSLRAEDTAVYYCARDPSWCLQDLCYYADGMDVWGQGTLVTVSS VL: QSVLTQPPSASGTPGQRVTISCSGSSSNIGSNSVSWYQQLPGTAPKLLIYADSNRPSGVPDRFSGSKSGTSASLAISGLRSEDEADYYCGSWDYSLSGYVFGGGTKLTVLG | koff | s⁻¹ | 3.33e-07 |
| 451M7 (antibody, V domains shown, IgG1 (Selexis 085 vector, CHO)) VH: EVQLLESGGGLVQPGGSLRLSCAASGFTFSYYDMSWVRQAPGKGLEWVSAIYYDSGSIYYADSAKGRFTISRDNSKNTLYLQMNSLRAEDTAVYYCAKDRLFESDSTFDYWGQGTLVTVSS VL: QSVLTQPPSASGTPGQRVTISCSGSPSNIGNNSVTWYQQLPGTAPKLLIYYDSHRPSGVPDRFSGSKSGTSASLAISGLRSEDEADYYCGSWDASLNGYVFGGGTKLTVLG | koff | s⁻¹ | 6.63e-06 |
| 442M6 (antibody, V domains shown, IgG1 (Selexis 085 vector, CHO)) VH: EVQLLESGGGLVQPGGSLRLSCAASGFTFSDYDMSWVRQAPGKGLEWVSSIEPDSGSTDYADSVQGRFTISRDNSKNTLYLQMNSLRAEDTAVYYCAKDRHMWPEGPFDYWGQGTLVTVSS VL: QSVLTQPPSASGTPGQRVTISCSGSSSNIGSNSGSWYQQLPGTAPKLLIYADNWRPSGVPDRFSGSKSGTSASLAISGLRSEDEADYYCAAWDSSLSGYVFGGGTKLTVLG | koff | s⁻¹ | 1.95e-05 |

Next:
Task: Would you mind telling me what koff value was observed for 442M3 (antibody, V domains shown, IgG1 (Selexis 085 vector, CHO)) VH: EVQLLESGGGLVQPGGSLRLSCAASGFTFSDYDMSWVRQAPGKGLEWVSSIYPDSGSTYYADSVQGRFTISRDNSKNTLYLQMNSLRAEDTAVYYCAKDRHMWPEGPFDYWGQGTLVTVSS VL: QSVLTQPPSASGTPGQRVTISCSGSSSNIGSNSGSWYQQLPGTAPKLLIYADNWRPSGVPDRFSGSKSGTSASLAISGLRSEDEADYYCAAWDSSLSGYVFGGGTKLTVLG ?
Result: 2.62e-06
